Data origin, for the record: patent US8076338B2

biological target: p70S6K (Homo sapiens, UniProt P23443); test: Luciferase-coupled chemiluminescence kinase assay (ATP consumption); format: biochemical; conditions: Table 1; class symbols per key
Sequence (P23443 whole entry): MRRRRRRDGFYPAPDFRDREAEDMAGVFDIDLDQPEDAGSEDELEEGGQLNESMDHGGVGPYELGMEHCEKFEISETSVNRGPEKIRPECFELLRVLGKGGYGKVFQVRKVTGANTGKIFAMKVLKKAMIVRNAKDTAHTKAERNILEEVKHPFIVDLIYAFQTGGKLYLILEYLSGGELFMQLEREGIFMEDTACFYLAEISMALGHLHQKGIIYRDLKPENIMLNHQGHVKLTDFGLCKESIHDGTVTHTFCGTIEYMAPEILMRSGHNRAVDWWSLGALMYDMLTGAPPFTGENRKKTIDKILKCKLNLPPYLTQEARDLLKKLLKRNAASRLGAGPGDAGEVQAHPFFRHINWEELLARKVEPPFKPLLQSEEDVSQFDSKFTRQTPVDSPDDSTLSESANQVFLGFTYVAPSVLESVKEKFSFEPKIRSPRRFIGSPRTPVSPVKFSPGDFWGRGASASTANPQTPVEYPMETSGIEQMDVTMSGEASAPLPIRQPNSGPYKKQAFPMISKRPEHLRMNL
Observable: IC50

{"columns": ["Molecule", "Target or test system", "IC50"],
 "data": [
  ["CCc1n[nH]c2ncnc(N3CCN(c4cc(C(F)(F)F)ccc4Cl)CC3)c12 [Entry 171]", "p70S6K (Homo sapiens, UniProt P23443)", "< 100 nM"],
  ["Cc1c(CCCN2CCCC2)cc(Cl)cc1N1CCN(c2ncnc3[nH]nc(C#CCO)c23)CC1 [Entry 182]", "p70S6K (Homo sapiens, UniProt P23443)", "< 100 nM"],
  ["CCOc1ccc(N2CCN(c3ncnc4[nH]nc(Br)c34)CC2)cc1 [Entry 104]", "p70S6K (Homo sapiens, UniProt P23443)", "100 to 1000 nM"],
  ["Fc1ccc(N2CCN(c3ncnc4[nH]nc(Br)c34)CC2)cc1Cl [Entry 93]", "p70S6K (Homo sapiens, UniProt P23443)", "< 100 nM"],
  ["Cc1nc(-c2cc(NCCN3CCCC3)c(C)c(N3CCN(c4ncnc5[nH]nc(Br)c45)CC3)c2)no1 [Entry 259]", "p70S6K (Homo sapiens, UniProt P23443)", "< 100 nM"],
  ["CCc1n[nH]c2ncnc(N3CCN(c4cc(C(F)(F)F)ccn4)CC3)c12 [Entry 116]", "p70S6K (Homo sapiens, UniProt P23443)", "100 to 1000 nM"],
  ["CC(C)CCNc1c(F)c(NCCN2CCCC2)nc(N2CCN(c3ncnc4[nH]nc(Br)c34)CC2)c1F [Entry 264]", "p70S6K (Homo sapiens, UniProt P23443)", "< 100 nM"]
]}

Kindly consider the entry below.
In: Check the records and state IC50 for Cc1c(OCCCN2CCN(C)CC2)cc(Cl)cc1N1CCN(c2ncnc3[nH]nc(C(F)(F)F)c23)CC1 [Entry 70]
Out: < 100 nM

----------
target: p70S6K (Homo sapiens); assay: Luciferase-coupled chemiluminescence kinase assay (ATP consumption); format: biochemical; conditions: Table 1; class symbols per key
Listing of recorded IC50 by entry.

{"columns": ["Molecule smiles", "Observed result"],
 "data": [
  ["Cc1c(OCCCN2CCCC2)cc(Cl)cc1N1CCN(c2ncnc3[nH]nc(C(F)(F)F)c23)CC1", "< 100 nM"],
  ["Cc1c(OCCCN2CCOCC2)cc(Cl)cc1N1CCN(c2ncnc3[nH]nc(Br)c23)CC1", "< 100 nM"],
  ["Brc1n[nH]c2ncnc(N3CCN(c4cccc(OCCN5CCCCC5)c4)CC3)c12", "100 to 1000 nM"]
]}

API: the following record is the query input.
In: For the compound CCCOc1cc(NCCN2CCCC2)c(C)c(N2CCN(c3ncnc4[nH]nc(Br)c34)CC2)c1 , report IC50.
Out: < 100 nM

----------
molecular target: AktK (Homo sapiens); assay: Luciferase-coupled chemiluminescence kinase assay (ATP consumption); type: biochemical; conditions: read-out: AKT-1 IC50
Observable: IC50

{"columns": ["Molecule", "Observable", "Observed result"],
 "data": [
  ["Cc1ccc(Cl)cc1N1CCN(c2ncnc3[nH]nc(C#CCO)c23)CC1 [Entry 393]", "IC50", "100 to 1000 nM"],
  ["CCc1n[nH]c2ncnc(N3CCN(c4cc(Cl)cc(CCCN5CCCC5)c4C)CC3)c12 [Entry 403]", "IC50", "100 to 1000 nM"],
  ["Cc1ccc(-c2n[nH]c3ncnc(N4CCN(c5cc(Cl)ccc5C)CC4)c23)cc1 [Entry 341]", "IC50", "1000 to 10000 nM"]
]}

In: Report value: IC50, system: AktK (Homo sapiens), molecule: Fc1ccc(N2CCN(c3ncnc4[nH]cnc34)CC2)cc1 [Entry 309]
Out: ≥ 10000 nM

In: Print AktK (Homo sapiens) IC50 for CCc1n[nH]c2ncnc(N3CCCN(c4cccc(Cl)c4)CC3)c12 [Entry 343] .
Out: ≥ 10000 nM

In: Name the value of IC50 reported for CCc1n[nH]c2ncnc(N3CCN(c4cc(Cl)ccc4OC)CC3)c12 [Entry 334] when tested on AktK (Homo sapiens).
Out: 1000 to 10000 nM

In: For AktK (Homo sapiens), give the measured IC50 of the entry CCc1n[nH]c2ncnc(N3CCN(c4cccc(Cl)c4)C(CO)C3)c12 (stereo not drawn) [Entry 379]
Out: 1000 to 10000 nM

In: Specify IC50 for Fc1ccc(N2CCN(c3ncnc4[nH]ccc34)CC2)cc1 [Entry 312] , system AktK (Homo sapiens).
Out: ≥ 10000 nM

In: Would you please give the reported IC50 of CCc1n[nH]c2ncnc(N3CCN(c4cc(Cl)cc(C(=O)OCCN(C)C)c4OC)CC3)c12 [Entry 376] with AktK (Homo sapiens)?
Out: 1000 to 10000 nM

----------
target: AktK (Homo sapiens); experiment: Luciferase-coupled chemiluminescence kinase assay (ATP consumption); format: biochemical; settings: Table 1; class symbols per key; read-out: AKT-1 IC50
Observable: IC50

Reference set (3 entries):
{"columns": ["Molecule smiles", "IC50"],
 "data": [
  ["CCc1n[nH]c2ncnc(N3CCN(c4cc(Cl)cc(OCCCN5CCN(C)CC5)c4C)CC3)c12", "100 to 1000 nM"],
  ["CNC(=O)c1cc(NCCN2CCCC2)c(C)c(N2CCN(c3ncnc4[nH]nc(Br)c34)CC2)c1", "100 to 1000 nM"],
  ["Fc1ccc(N2CCN(c3ncnc4[nH]nc(Br)c34)CC2)cc1F", "≥ 10000 nM"]
]}

In: Look up and report measured IC50 for this entry: Cc1c(NCCN2CCCC2)cc(OCCC(F)(F)F)cc1N1CCN(c2ncnc3[nH]nc(Br)c23)CC1
Out: < 100 nM

----------
Each entry below lists one item and its recorded pIC50 value.
target: AktK (Homo sapiens, UniProt P31749); assay: Luciferase-coupled chemiluminescence kinase assay (ATP consumption); format: biochemical; conditions: Table 1; class symbols per key; read-out: AKT-1 IC50
Sequence (P31749 whole entry): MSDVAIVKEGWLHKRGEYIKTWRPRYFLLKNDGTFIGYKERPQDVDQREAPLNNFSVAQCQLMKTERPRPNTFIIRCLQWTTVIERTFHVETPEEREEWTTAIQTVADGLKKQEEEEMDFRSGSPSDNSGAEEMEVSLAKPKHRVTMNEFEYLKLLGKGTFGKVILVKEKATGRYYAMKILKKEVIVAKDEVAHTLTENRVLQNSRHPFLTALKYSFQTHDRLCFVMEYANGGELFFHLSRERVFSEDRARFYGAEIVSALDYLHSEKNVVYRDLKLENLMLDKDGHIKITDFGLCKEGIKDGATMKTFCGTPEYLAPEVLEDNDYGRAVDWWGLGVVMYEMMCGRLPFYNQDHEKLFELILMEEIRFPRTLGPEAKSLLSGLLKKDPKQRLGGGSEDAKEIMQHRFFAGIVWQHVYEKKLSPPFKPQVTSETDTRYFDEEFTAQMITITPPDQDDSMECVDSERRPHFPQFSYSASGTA
pIC50: −log10 of the molar value.

{"columns": ["Molecule smiles", "pIC50"],
 "data": [
  ["FC(F)(F)c1cccc(N2CCN(c3ncnc4[nH]nc(Br)c34)CC2)c1", "≤ 5.00"],
  ["Cc1c(CCCN2CCCC2)cc(F)cc1N1CCN(c2ncnc3[nH]nc(Br)c23)CC1", "6.00 to 7.00"],
  ["Cc1c(OCCN2CCCCC2)cc(Cl)cc1N1CCN(c2ncnc3[nH]nc(Br)c23)CC1", "6.00 to 7.00"],
  ["Cc1c(NCCN2CCCC2)cc(C(=O)N(C)C)cc1N1CCN(c2ncnc3[nH]nc(Br)c23)CC1", "6.00 to 7.00"]
]}

In: Tell us which pIC50 value is on record for CCc1ccccc1N1CCN(c2ncnc3[nH]nc(Br)c23)CC1
Out: ≤ 5.00

In: Let me know recorded pIC50 for CCOc1cc(NCCN2CCCC2)c(C)c(N2CCN(c3ncnc4[nH]nc(Br)c34)CC2)c1 , thanks.
Out: > 7.00

In: Give the reported pIC50 for this compound. Cc1c(NCCN2CCCC2)cc(-c2nc(-c3ccccc3)no2)cc1N1CCN(c2ncnc3[nH]nc(Br)c23)CC1
Out: 5.00 to 6.00

In: Provide pIC50 value for the following compound: Cc1ccc(OCC(F)(CF)CF)cc1N1CCN(c2ncnc3[nH]nc(Br)c23)CC1
Out: > 7.00

In: For Cc1c(NCCN2CCCC2)cc(S(C)(=O)=O)cc1N1CCN(c2ncnc3[nH]nc(Br)c23)CC1 , write its pIC50.
Out: 6.00 to 7.00

In: Name the recorded pIC50 of the item Cc1c(Br)cc(Cl)cc1N1CCN(c2nc(N)nc3[nH]ncc23)CC1 in your answer.
Out: ≤ 5.00

In: Dear colleague, please send me the reported pIC50 for Clc1ccc(N2CCN(c3ncnc4[nH]nc(Br)c34)CC2)cc1Cl when you can.
Out: ≤ 5.00

In: Return the recorded pIC50 value; entry: Cc1c(NCCN2CCCC2)cc(C(=O)Nc2ccccc2)cc1N1CCN(c2ncnc3[nH]nc(Br)c23)CC1
Out: > 7.00

In: State its pIC50: CCc1n[nH]c2ncnc(N3CCN(c4cc(Cl)cc(OC)c4)CC3)c12
Out: ≤ 5.00

----------
target: p70S6K (Homo sapiens); assay: Luciferase-coupled chemiluminescence kinase assay (ATP consumption); assay type: biochemical
pIC50: −log10 of the molar value.
Observable: pIC50

{"columns": ["Molecule smiles", "Target or test system", "pIC50"],
 "data": [
  ["CCCc1n[nH]c2ncnc(N3CCN(c4cc(Cl)ccc4C)CC3)c12", "p70S6K (Homo sapiens)", "> 7.00"]
]}

In: Using known records, supply pIC50 for CCc1n[nH]c2ncnc(N3CCN(c4cc(Cl)cc(CCCN(CC)CC)c4C)CC3)c12
Out: > 7.00

In: Answer with reported pIC50 of c1ccc(N2CCN(c3ncnc4[nH]cnc34)CC2)cc1
Out: 5.00 to 6.00

In: Retrieve pIC50 measured for FC(F)(F)c1cccc(N2CCN(c3ncnc4[nH]ncc34)CC2)c1 and print it.
Out: > 7.00

In: Give the measured pIC50 for CCN(CC)CCCc1n[nH]c2ncnc(N3CCN(c4cc(Cl)ccc4C)CC3)c12
Out: 5.00 to 6.00

In: Look up pIC50 of CCN(CC)CC#Cc1n[nH]c2ncnc(N3CCN(c4cc(Cl)ccc4C)CC3)c12 and report it.
Out: > 7.00

In: Fill in pIC50 for record Cc1ccc(Cl)cc1N1CCN(c2ncnc3[nH]nc(Cc4ccccc4)c23)CC1
Out: 6.00 to 7.00

In: Retrieve pIC50 measured for CCc1n[nH]c2ncnc(N3CCN(c4cc(Cl)cc(CCCN5CCCC5)c4C)CC3)c12 and print it.
Out: > 7.00

In: Consider the compound Cc1ccc(Cl)cc1N1CCN(c2ncnc3[nH]nc(C#CCN4CCN(C)CC4)c23)CC1 and give its recorded pIC50.
Out: 6.00 to 7.00

In: Please give measured pIC50 of the following entry: Cc1ccc(Cl)cc1N1CCN(c2ncnc3[nH]nc(C=C4C[C@@H]5CN(C(=O)OCc6ccccc6)C[C@@H]5C4)c23)CC1
Out: 5.00 to 6.00

In: State its pIC50 for this compound: Cc1n[nH]c2ncnc(N3CCN(c4cccc(Cl)c4)CC3)c12
Out: > 7.00
